# experiment_summary: Terminal half life in Wistar han rat at 2 mg/kg, po and 1 mg/kg, iv
# Assay type: ADME, organism-based
# study_conditions: in vivo, read-out: beta t1/2 (converted)
metric: half-life (h)
Write the value in h as a bare number.

Example results:
What does the record list as half-life for C[C@H](c1ccc(F)cc1)N1C(=O)O[C@](Cc2ccccc2)(c2nc3cc(-c4cccnc4)ccc3[nH]2)C1=O ?
0.94

Moving on to C[C@H](c1ccc(F)cc1)N1C(=O)O[C@](Cc2ccccc2)(c2nc3cc(C(F)(F)F)ccc3[nH]2)C1=O
1.7

Same thing, different molecule: C[C@H](c1ccc(F)cc1)N1C(=O)O[C@](Cc2ccccc2)(c2nc3c(C(F)(F)F)cccc3[nH]2)C1=O
2.4

Same question for C[C@H](c1ccc(F)cc1)N1C(=O)O[C@](Cc2ccccc2)(c2nc3c(NS(C)(=O)=O)cccc3[nH]2)C1=O please.
1.2

Let us move to another entry and its half-life.
Recorded half-life of C[C@H](c1ccc(F)cc1)N1C(=O)O[C@](Cc2ccccc2)(c2nc3cc(Cl)ccc3[nH]2)C1=O , please.
1.5
